- System name: Sigma non-opioid intracellular receptor 1 (Cavia porcellus, UniProt Q60492)
- Sequence (Q60492 whole entry): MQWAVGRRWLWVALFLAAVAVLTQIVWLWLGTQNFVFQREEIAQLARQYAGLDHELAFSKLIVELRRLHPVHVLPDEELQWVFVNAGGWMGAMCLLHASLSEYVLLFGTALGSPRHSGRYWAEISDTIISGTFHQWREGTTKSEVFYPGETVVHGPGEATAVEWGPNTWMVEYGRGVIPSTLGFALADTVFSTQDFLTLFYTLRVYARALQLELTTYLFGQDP
- Test method notes: Displacement of [3H](+)-pentazocine from sigma 1 receptor in guinea pig brain membrane
Measure name: Ki
Don't forget the unit after the value.

Example results:
CO[C@H]1Cc2sc(CN(C)C)cc2C2(CCN(Cc3ccccc3)CC2)O1    0.017 µM
CO[C@H]1Cc2sccc2C2(CCN(CC3CCCCC3)CC2)O1    0.0003 µM
CO[C@H]1Cc2sccc2C2(CCN(CC=C(C)C)CC2)O1    0.001 µM
OCC[C@H]1Cc2ccccc2C2(CCN(CCCc3ccccc3)CC2)O1    0.015 µM
CO[C@H]1Cc2sccc2C2(CCN(Cc3ccccc3)CC2)O1    0.00032 µM

The record that follows has no Ki shown yet.
Query string: GET /values?readout=Ki&system=Sigma non-opioid intracellular receptor 1 (Cavia porcellus, UniProt Q60492)&item= `OCC[C@@H]1Cc2ccccc2C2(CCN(CC3CCCCC3)CC2)O1`
Result string: 0.009 µM
